Reference for the values: the supplement of paper PMC8975748

System: Saccharomyces cerevisiae BY4741 SeMeCo community
Experiment: z-score of subpopulation abundance vs DMSO median, subpopulation auxotrophic for HUM; higher = larger share of this subpopulation than in DMSO controls
Conditions: 10 µM; 24 h; SM minimal medium; subpopulation (auxotrophy): HUM
Counter-ions that a name gives are not always drawn.
Readings of z-score of subpopulation abundance for the listed compounds
Lab note: write the figure by itself, no unit.

[
  {
    "compound": "COC(=O)C1=C(C)NC(C)=C(C(=O)OCCN2CCN(C(c3ccccc3)c3ccccc3)CC2)C1c1cccc([N+](=O)[O-])c1 (stereo unspecified) [Manidipine 2HCl]",
    "z-score of subpopulation abundance": 1.21
  },
  {
    "compound": "CN[C@@H]1[C@H](O[C@H]2[C@H](O[C@H]3[C@H](O)[C@@H](O)[C@H](N=C(N)N)[C@@H](O)[C@@H]3N=C(N)N)O[C@@H](C)[C@]2(O)C=O)O[C@@H](CO)[C@H](O)[C@H]1O [Streptomycin sulfate]",
    "z-score of subpopulation abundance": 0.39
  },
  {
    "compound": "O=C(NCCN1CCOCC1)c1ccc(Cl)cc1",
    "z-score of subpopulation abundance": -1.26
  }
]

Entry CC1(C)S[C@@H]2[C@H](NC(=O)Cc3ccccc3)C(=O)N2[C@H]1C(=O)O [Benzylpenicillin potassium] ; z-score of subpopulation abundance = 0.17

The compound listed as "C=CC1=C(C(=O)O)N2C(=O)[C@@H](NC(=O)/C(=N\OCC(=O)O)c3csc(N)n3)[C@H]2SC1" has a reported z-score of subpopulation abundance of -0.75

---

# Lookup of reported z-score of subpopulation abundance keyed by entry
System: Saccharomyces cerevisiae BY4741 SeMeCo community
Test: z-score of subpopulation abundance vs DMSO median, subpopulation auxotrophic for M; higher = larger share of this subpopulation than in DMSO controls
Settings: 10 µM; 24 h; SM minimal medium; subpopulation (auxotrophy): M
Enter a number only.

Answered cases to consult:
[
  {
    "compound": "Cn1nnc(-c2ccc(-c3ccc(N4C[C@H](COP(=O)(O)O)OC4=O)cc3F)cn2)n1 [Tedizolid Phosphate]",
    "measurement_target": "Saccharomyces cerevisiae BY4741 SeMeCo community",
    "z-score of subpopulation abundance": -0.15
  },
  {
    "compound": "C#C[C@]1(O)CC[C@H]2[C@@H]3CCC4=CCCC[C@@H]4[C@H]3CC[C@@]21C",
    "measurement_target": "Saccharomyces cerevisiae BY4741 SeMeCo community",
    "z-score of subpopulation abundance": -1.23
  },
  {
    "compound": "CS(=O)(=O)c1ccc([C@@H](O)[C@@H](CF)NC(=O)C(Cl)Cl)cc1",
    "measurement_target": "Saccharomyces cerevisiae BY4741 SeMeCo community",
    "z-score of subpopulation abundance": -1.1
  },
  {
    "compound": "COc1cccc2c1C(=O)c1c(O)c3c(c(O)c1C2=O)C[C@@](O)(C(=O)CO)C[C@@H]3O[C@H]1C[C@H](N)[C@H](O[C@@H]2CCCCO2)[C@H](C)O1",
    "measurement_target": "Saccharomyces cerevisiae BY4741 SeMeCo community",
    "z-score of subpopulation abundance": -12
  }
]

Next up:
Lab note: measured z-score of subpopulation abundance of Cc1cc(CC(C)CC(C)(C)C)n(O)c(=O)c1 (stereo not given) was 0.45

---

Tested on: Saccharomyces cerevisiae BY4741 SeMeCo community
Assay: mean cell size (pixel area) (pixels); higher = larger cells
Conditions: 10 µM; 24 h; SM minimal medium
Counter-ions that a name gives are not always drawn.
property_measured: mean cell size
Please state the value as a number alone, without comment.

Please review the entries below; each comes with its answer.
[
  {
    "molecule": "CN(C)CCc1c[nH]c2ccc(C[C@H]3COC(=O)N3)cc12",
    "measurement_target": "Saccharomyces cerevisiae BY4741 SeMeCo community",
    "mean cell size": 12.5
  },
  {
    "molecule": "O=[N+]([O-])c1ccc(O)c2ncccc12",
    "measurement_target": "Saccharomyces cerevisiae BY4741 SeMeCo community",
    "mean cell size": 13.6
  }
]

Sure, the documented mean cell size for C[C@@H](O)[C@H]1C(=O)N2C(C(=O)[O-])=C(SC3Cn4cnc[n+]4C3)[C@H](C)[C@H]12 (some centres not stated) is 12.1

Memo: "CCCOc1ccc2c(c1)CC[C@@H]1[C@@H]2CC[C@]2(C)[C@@H](OC)CC[C@@H]12" , reported mean cell size: 12.5

Value of mean cell size reported for the molecule CO/N=C(\C(=O)N[C@@H]1C(=O)N2C(C(=O)[O-])=C(C[n+]3cccc4c3CCC4)CS[C@H]12)c1csc(N)n1 [Cefpirome sulfate] is 12.5

The molecule C[N+]1(C)CCC(=C(c2ccccc2)c2ccccc2)CC1 [Diphemanil Methylsulfate] showed mean cell size equal to 12.6

Entry under test: Fc1ccc(C(c2ccc(F)cc2)N2CCN(C/C=C/c3ccccc3)CC2)cc1 [Flunarizine 2HCl] . Its mean cell size was 12.4

---

System: Saccharomyces cerevisiae BY4741 SeMeCo community
Assay: z-score of subpopulation abundance vs DMSO median, subpopulation auxotrophic for H; higher = larger share of this subpopulation than in DMSO controls
Settings: 10 µM; 24 h; SM minimal medium; subpopulation (auxotrophy): H
Where a name gives a salt, the structure may show the parent alone.
The following ranges of z-score of subpopulation abundance define the classes used here: lower bin = under -0.3, middle bin = from -0.3 up to 0.9, upper bin = 0.9 and over

[
  {
    "compound": "OCc1ccccc1O[C@@H]1O[C@H](CO)[C@@H](O)[C@H](O)[C@H]1O",
    "assigned_label": "lower bin"
  },
  {
    "compound": "CCCCOc1cc(C(=O)NCCN(CC)CC)c2ccccc2n1 [Dibucaine HCl]",
    "assigned_label": "lower bin"
  },
  {
    "compound": "COc1cccc2c1C(=O)c1c(O)c3c(c(O)c1C2=O)C[C@@](O)(C(C)=O)C[C@@H]3O[C@H]1C[C@H](N)[C@H](O)[C@H](C)O1 [Daunorubicin HCl]",
    "assigned_label": "middle bin"
  },
  {
    "compound": "COC(=O)C1=C(C)NC(C)=C(C(=O)OC(C)(C)CN(C)CCC(c2ccccc2)c2ccccc2)C1c1cccc([N+](=O)[O-])c1 (stereo not given) [Lercanidipine]",
    "assigned_label": "upper bin"
  },
  {
    "compound": "Nc1c(CC(=O)O)cccc1C(=O)c1ccc(Br)cc1 [Bromfenac Sodium]",
    "assigned_label": "middle bin"
  },
  {
    "compound": "C[C@H]1[C@H](NC(=O)/C(=N\\OC(C)(C)C(=O)O)c2csc(N)n2)C(=O)N1S(=O)(=O)O",
    "assigned_label": "middle bin"
  }
]

Bin? CCc1nn(CCCN2CCN(c3cccc(Cl)c3)CC2)c(=O)n1CCOc1ccccc1 [Nefazodone hydrochloride]
upper bin

Band assignment needed for COCCCOc1ccnc(C[S+]([O-])c2nc3ccccc3[nH]2)c1C (stereo not given) [Rabeprazole] please.
upper bin

---

Tested on: Saccharomyces cerevisiae BY4741 SeMeCo community
Experiment: z-score of subpopulation abundance vs DMSO median, subpopulation auxotrophic for UM; higher = larger share of this subpopulation than in DMSO controls
Conditions: 10 µM; 24 h; SM minimal medium; subpopulation (auxotrophy): UM
Structures can show the parent of a compound that is named as a salt.
In this section we review reported z-score of subpopulation abundance values for a set of compounds.
// response body must contain only the number

For orientation, consider the following solved cases.
[
  {
    "compound": "CC(N)C12CC3CC(CC(C3)C1)C2 (stereo unspecified)",
    "z-score of subpopulation abundance": 1.1
  },
  {
    "compound": "C=CCCCCCCCCC(=O)[O-].C=CCCCCCCCCC(=O)[O-].[Zn+2] [Zinc Undecylenate]",
    "z-score of subpopulation abundance": -2.31
  },
  {
    "compound": "O=c1[nH]cc(F)c(=O)[nH]1",
    "z-score of subpopulation abundance": 2.82
  },
  {
    "compound": "CO/N=C(/C(=O)N[C@@H]1C(=O)N2C(C(=O)OCOC(=O)C(C)(C)C)=C(C)CS[C@H]12)c1csc(N)n1 [Cefetamet pivoxil hydrochloride]",
    "z-score of subpopulation abundance": 0.64
  },
  {
    "compound": "COCCCC/C(=N\\OCCN)c1ccc(C(F)(F)F)cc1 [Fluvoxamine maleate]",
    "z-score of subpopulation abundance": -0.21
  }
]

Input "C[C@H]1O[C@@H](O[C@H]2[C@@H](O)C[C@H](O[C@H]3[C@@H](O)C[C@H](O[C@H]4CC[C@@]5(C)[C@H](CC[C@@H]6[C@@H]5C[C@@H](O)[C@]5(C)[C@@H](C7=CC(=O)OC7)CC[C@]65O)C4)O[C@@H]3C)O[C@@H]2C)C[C@H](O)[C@@H]1O" . Output z-score of subpopulation abundance: -0.69
